Recorded values, source patent US20220324970A1.

Molecular target: T1, human pIgR extracellular domain 4-domain 5 (D4-D5) (human, UniProt P01833 350-565)
T1 construct: HIS-tagged construct made in HEK293 cells; also called hpIgR domains 4-5
T1 chain: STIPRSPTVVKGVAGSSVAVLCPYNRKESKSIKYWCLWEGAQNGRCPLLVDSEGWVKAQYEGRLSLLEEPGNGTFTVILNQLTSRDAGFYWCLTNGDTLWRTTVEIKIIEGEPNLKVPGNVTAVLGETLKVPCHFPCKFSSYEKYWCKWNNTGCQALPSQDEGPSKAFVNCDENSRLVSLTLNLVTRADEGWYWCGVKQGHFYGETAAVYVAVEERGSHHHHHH
Test: BLI (Octet RED384), 1:1 fit, 25 C, PBS
Would you mind telling me the reported kon of each entry?
Answers are plain numbers, in M⁻¹ s⁻¹.

{"binder": "VHH10-linker-mono-Fc protein (Fc fusion, made in CHO cells; also called VHH10-mono-Fc; hpIgR_225) EVQVVESGGGLVQAGGSLRLSCAASGFTFTRYAMGWFRQAPGKERSFVAAISWSGSSAGYGDSVKGRFTISRDNAKNTLYLQMNSLKPEDTAVYYCAADPFNQGYWGQGTQVTVSSEPKTPKPQPQPQLQPQPNPTTESKSPKSPAPELLGGPSVFLFPPKPKDTLMISRTPEVTCVVVDVSHEDPEVKFNWYVDGVEVHNAKTKPREEQYNSTYRVVSVLTVLHQDWLNGKEYKCKVSNKALPAPIEKTISKAKGQPREPQVYTKPPSREEMTKNQVSLSCLVKGFYPSDIAVEWESNGQPENNYKTTVPVLDSDGSFRLASYLTVDKSRWQQGNVFSCSVMHEALHNHYTQKSLSLSPGK", "kon [M⁻¹ s⁻¹]": 16300}

Below are some binders; for each one, tell me its kon.
1. VHH12-linker-mono-Fc protein (Fc fusion, made in CHO cells; also called VHH12-mono-Fc; hpIgR_266) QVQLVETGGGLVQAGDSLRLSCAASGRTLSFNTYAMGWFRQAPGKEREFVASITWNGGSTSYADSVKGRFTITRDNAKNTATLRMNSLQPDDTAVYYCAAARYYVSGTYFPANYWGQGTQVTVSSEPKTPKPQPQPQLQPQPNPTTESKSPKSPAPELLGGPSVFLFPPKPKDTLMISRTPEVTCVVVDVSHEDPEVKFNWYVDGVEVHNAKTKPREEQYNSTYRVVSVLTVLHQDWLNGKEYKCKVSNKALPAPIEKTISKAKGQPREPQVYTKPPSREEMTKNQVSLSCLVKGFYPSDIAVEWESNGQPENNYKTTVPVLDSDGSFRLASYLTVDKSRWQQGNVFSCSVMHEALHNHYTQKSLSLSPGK
2. VHH11-linker-mono-Fc protein (Fc fusion, made in CHO cells; also called VHH11-mono-Fc; hpIgR_250) EVQVVESGGGLVQAGGSLRLSCAASGRTFTTYRMGWFRQAPGKEREFVAAIRWSGGRTLYADSVKGRFTISRDNAKNTAYLQMNNLRPEDTAVYYCAADLAEYSGTYSSPADSPAGYDYWGQGTQVTVSSEPKTPKPQPQPQLQPQPNPTTESKSPKSPAPELLGGPSVFLFPPKPKDTLMISRTPEVTCVVVDVSHEDPEVKFNWYVDGVEVHNAKTKPREEQYNSTYRVVSVLTVLHQDWLNGKEYKCKVSNKALPAPIEKTISKAKGQPREPQVYTKPPSREEMTKNQVSLSCLVKGFYPSDIAVEWESNGQPENNYKTTVPVLDSDGSFRLASYLTVDKSRWQQGNVFSCSVMHEALHNHYTQKSLSLSPGK

38500
184000
